Recorded chromatographic logD, one value per entry.
procedure_summary: Distribution coefficient, logD of the compound by chromatography
Format: physicochemical
condition_details: octanol/water
The reply should be a number, written without any unit.

# compound_smiles, chromatographic logD
rows = [
    ("CCOCCn1c(-c2ccc(N3[C@@H](C)CC[C@@H]3C)nc2)nc2ccccc21", 6.4),
]

Reported chromatographic logD, compound C[C@@H]1CN(C)C[C@H](Cn2c(-c3ccc(N4[C@@H](C)CC[C@@H]4C)nc3)nc3ccccc32)O1 : ____ 5.5

Would you kindly share the measured chromatographic logD for C[C@H]1CN(C)C[C@@H](Cn2c(-c3ccc(N4[C@@H](C)CC[C@@H]4C)nc3)nc3ccccc32)O1 ? 5.6

Data request, read-out chromatographic logD, for Cc1cccc2nc(-c3ccc(N4[C@@H](C)CC[C@@H]4C)nc3)n(Cc3ccn(C)n3)c12 7

What value of chromatographic logD has been recorded for this entry: COc1cccc2nc(-c3ccc(N4[C@@H](C)CC[C@@H]4C)nc3)n(C[C@@H]3CNC[C@H](C)O3)c12 4.4

Suppose we examine the compound COc1cccc2nc(-c3ccc(N4[C@@H](C)CC[C@@H]4C)nc3)n(C[C@@H]3CNCCO3)c12 ; what chromatographic logD value has been reported? 4

May I ask what chromatographic logD has been recorded for COc1cccc2nc(-c3ccc(N4[C@@H](C)CC[C@@H]4C)nc3)n(C[C@@H]3CN(C)C[C@H](C)O3)c12 ? 6.8
